Biological target: UniProt:P0DTD1
Assay: Rapid-Fire MS Biochemical Assay measuring Mpro activity (5 nM Mpro)
Conditions: Table 1B, Mpro inhibition, 5 μM substrate peptide, 120 min, read-out: Rapid-Fire Assay IC50
pIC50: −log10 of the molar value.
test.readout: pIC50

Known results for compounds:
[[record]]
compound = "COc1cc(C#N)ccc1N1C[C@H](C#N)N(c2cncc3ccccc23)C1=O (single isomer, unassigned) [Compound 19a]"
test_result = "> 7.70"

[[record]]
compound = "C[C@H]1[C@@H](C#N)N(c2cncc3ccccc23)C(=O)N1c1cccc(Cl)c1 (single isomer, unassigned) [Compound 43b]"
test_result = "6.00 to 6.70"

[[record]]
compound = "COc1cc(C(F)(F)F)ncc1N1C[C@@H](C#N)N(c2cncc3ccccc23)C1=O (single isomer, unassigned) [Compound 107b]"
test_result = "< 6.00"

[[record]]
compound = "Cc1ncccc1N1CC(C#N)N(c2cncc3ccccc23)C1=O (racemic) [Compound 74]"
test_result = "6.00 to 6.70"

[[record]]
compound = "COc1nc(C(F)(F)F)ccc1N1C[C@H](C#N)N(c2cncc3ccccc23)C1=O (single isomer, unassigned) [Compound 95a]"
test_result = "> 7.70"

[[record]]
compound = "COCCNC(=O)c1ccc2cncc(N3C(=O)N(c4cccc(Cl)c4)CC3C#N)c2c1 (stereo not shown) [Compound 36]"
test_result = "6.70 to 7.70"


Next compound, pIC50 to be filled in.
Known value: UniProt:P0DTD1 pIC50 of the compound Cn1ccc(N2C[C@@H](C#N)N(c3cncc4ccccc34)C2=O)cc1=O (single isomer, unassigned) [Compound 67b] equals < 6.00

Value source: patent US20250092016A1
